# system.name: T1, recombinant human PD-1 dimer expressed with a C-terminal mouse IgG2a Fc tag (human)
# T1 construct: also called hPD-1-mFc
# assay.protocol: BLI Octet: 100 nM hPD-1-mFc + 500 nM mAb to captured hPD-L1-hFc
For each entry below, report its % Blocking value.
Quick note: give the figure in %, leave out the unit.

Query string: Indicate its recorded % Blocking; the binder in question is H2aM7798N (antibody, V domains shown, human variable regions, mouse IgG2a Fc; also called H2M7798N) VH: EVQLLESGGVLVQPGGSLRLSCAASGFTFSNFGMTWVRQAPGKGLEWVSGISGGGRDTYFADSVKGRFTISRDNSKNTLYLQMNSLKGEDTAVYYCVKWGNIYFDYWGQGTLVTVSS VL: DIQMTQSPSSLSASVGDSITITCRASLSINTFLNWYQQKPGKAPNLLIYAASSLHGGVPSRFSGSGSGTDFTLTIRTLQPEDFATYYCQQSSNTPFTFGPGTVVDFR
Result string: 86

Query string: Indicate its recorded % Blocking; the binder in question is H2aM7791N (antibody, V domains shown, human variable regions, mouse IgG2a Fc; also called H2M7791N) VH: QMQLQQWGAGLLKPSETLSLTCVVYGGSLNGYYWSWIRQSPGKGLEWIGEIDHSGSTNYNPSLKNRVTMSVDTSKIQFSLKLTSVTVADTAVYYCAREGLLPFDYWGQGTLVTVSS VL: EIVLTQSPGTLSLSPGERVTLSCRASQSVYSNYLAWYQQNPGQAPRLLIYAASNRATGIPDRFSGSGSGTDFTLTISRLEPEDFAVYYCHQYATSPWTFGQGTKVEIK
Result string: -229
